Target: NADPH oxidase 5 (Homo sapiens) (UniProt Q96PH1)
Sequence (Q96PH1 whole entry, looked up): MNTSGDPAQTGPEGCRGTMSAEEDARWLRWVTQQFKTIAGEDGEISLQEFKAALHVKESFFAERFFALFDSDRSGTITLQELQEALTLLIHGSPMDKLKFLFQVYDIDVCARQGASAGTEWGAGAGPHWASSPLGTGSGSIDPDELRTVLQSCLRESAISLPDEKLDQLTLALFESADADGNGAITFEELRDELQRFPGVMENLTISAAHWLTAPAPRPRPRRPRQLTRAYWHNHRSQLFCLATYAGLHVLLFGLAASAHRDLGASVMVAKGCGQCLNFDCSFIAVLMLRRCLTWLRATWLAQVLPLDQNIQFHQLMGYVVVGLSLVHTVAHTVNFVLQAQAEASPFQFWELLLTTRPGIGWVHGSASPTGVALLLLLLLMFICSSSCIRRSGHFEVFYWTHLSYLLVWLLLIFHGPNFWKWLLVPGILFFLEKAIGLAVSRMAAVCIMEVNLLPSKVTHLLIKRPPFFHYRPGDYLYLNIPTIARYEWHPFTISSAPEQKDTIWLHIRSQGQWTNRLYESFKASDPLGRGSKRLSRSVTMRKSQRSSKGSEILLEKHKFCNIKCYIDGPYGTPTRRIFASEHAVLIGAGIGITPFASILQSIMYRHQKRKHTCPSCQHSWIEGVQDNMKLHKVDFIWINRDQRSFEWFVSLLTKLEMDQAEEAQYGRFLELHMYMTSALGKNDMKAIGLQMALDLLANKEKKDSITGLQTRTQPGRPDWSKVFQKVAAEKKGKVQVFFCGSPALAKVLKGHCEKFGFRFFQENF
Test: NOX5-dependent H2O2 signal modulators, primary screen, NOX inhibitor project, cell-based, HEK293-NOX5, Amplex Red fluorescence (AID 1161)
Settings: HEK293-NOX5, ionomycin, 45 min, higher = more signal
z-score vs -0.8: at or above is met, below is not met.

compound | class-name
O=C1O[C@@H](c2ccccc2)[C@@H](c2ccccc2)N2[C@@H](c3ccccc3OCCO)[C@]3(C(=O)Nc4ccc(C#CCCO)cc43)[C@@H](C(=O)O)[C@H]12 | not met
CO[C@@H]1COC(=O)CC=C[C@@H](C)COC(=O)[C@H](COCc2ccccc2)NC(=O)CC=C[C@H]1C | met
COc1cccc([C@H]2Oc3ccc(OC)cc3C(=NOC(C)CN3CCCc4nc(C)c(C)cc43)[C@@H]2O)c1 (stereo partly specified) | met
CCN1C(=O)[C@H]2[C@H]3[C@H](O)C=CC(=O)[C@@H]3CC[C@H]2C1=O | met
COC(=O)C1(C)C=C2C(=C(c3ccccc3)C(=O)C2C)CN1 (stereo unspecified) | not met

====

Target: NADPH oxidase 5 (Homo sapiens) (UniProt Q96PH1)
Test: NOX5-dependent H2O2 signal modulators, primary screen, NOX inhibitor project, cell-based, HEK293-NOX5, Amplex Red fluorescence (AID 1161)
Settings: HEK293-NOX5, ionomycin, 45 min, higher = more signal

compound | z-score
CCCCCN1CC=CC23O[C@@H]4C=CCOC(=O)[C@@H]4[C@H]2C(=O)N(C(CO)C(C)C)[C@@H]3C1=O (stereo partly drawn) | 1.24
CO[C@H]1O[C@H](CO)[C@@H](OC(=O)Nc2ccc3c(c2)OCO3)[C@H](OC(=O)Nc2ccccc2-c2ccccc2)[C@@H]1OC(=O)Nc1ccccc1-c1ccccc1 | -0.303
CO[C@@H]1COC(=O)[C@@H]2CCCN2C(=O)[C@@H](C)COC(=O)[C@H](COCc2ccccc2)NC(=O)CC=C[C@H]1C | -0.159

====

Target: Concanavalin-A (Canavalia ensiformis)
Test: ConA small-molecule binders, primary screen, artefact control for SMM control protein annotation, biochemical, small-molecule microarray, Alexa647 label, 635 nm (AID 1127);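 further: z combines 667 nm emission intensity with signal-to-noise across three replicate slides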
Conditions: ConA-A647 binding fluorescence, higher = more signal
Output: class label from composite z-score. Mapping: small value (below -0.09), mid value (-0.09 to below 1), large value (1 or more)

compound | class-name
CC(C)C[C@@H]1NC(=O)[C@H]2C[C@@H](C(=O)O)[C@@H](c3ccc(O)cc3)N2C1=O | mid value
COCCOC(=O)N1C(=O)[C@@]2(c3cc(C#Cc4ccc(OC)cc4)ccc31)[C@H](c1ccc(O)cc1)N1[C@H](c3ccccc3)[C@H](c3ccccc3)OC(=O)[C@H]1[C@@H]2C(N)=O | large value
O=C1O[C@@H](c2ccccc2)[C@@H](c2ccccc2)N2[C@@H](c3ccc(OCCO)cc3)[C@]3(C(=O)Nc4ccccc43)[C@@H](C(=O)N3CCN(c4ncccn4)CC3)[C@H]12 | large value
CCOC(=O)C1=CC[C@H]2C(=O)N(CC)C(=O)[C@@H]12 | mid value
C/C=C\[C@@H](NCc1ccccc1Br)[C@@H](O)Cc1ccccc1 | small value
COc1ccc([Si](C)(C)[C@H]2[C@H](CCO)O[C@@]3(C(=O)N(Cc4cccc(NC(=O)[C@H](C)O)c4)c4ccccc43)[C@@H]2C)cc1 | large value
CC(CCN1CCc2nc(-c3ccccc3)c(-c3ccccc3)cc2C1)=NO[C@H](C)c1cn([C@@H]2COC[C@H]2O)nn1 | small value
CC(C)CON=C1C[C@@H](O)[C@@H](O)[C@@H]2[C@@H]3C(=O)N([C@@H](C)c4ccccc4)C(=O)[C@@H]3CC[C@H]12 | large value
COCCCNC(=O)[C@]1(CCC(=O)OC(C)(C)C)N=C(c2ccc(OCCCO)cc2)O[C@@H]1c1ccccc1N=[N+]=[N-] | large value
CN1C(=O)C2C(C1=O)C1C=C(CCCO)C2C(c2ccc(CN3CCCC3)cc2)N1C (stereo not drawn) | small value
CO[C@H]1COC(=O)CC=C[C@H](C)[C@@H](NS(=O)(=O)c2ccc(C)cc2)COC(=O)CC=C[C@@H]1C | small value
